Molecular target: Prostaglandin E2 receptor EP2 subtype (Homo sapiens)
Sequence (P43116 whole entry): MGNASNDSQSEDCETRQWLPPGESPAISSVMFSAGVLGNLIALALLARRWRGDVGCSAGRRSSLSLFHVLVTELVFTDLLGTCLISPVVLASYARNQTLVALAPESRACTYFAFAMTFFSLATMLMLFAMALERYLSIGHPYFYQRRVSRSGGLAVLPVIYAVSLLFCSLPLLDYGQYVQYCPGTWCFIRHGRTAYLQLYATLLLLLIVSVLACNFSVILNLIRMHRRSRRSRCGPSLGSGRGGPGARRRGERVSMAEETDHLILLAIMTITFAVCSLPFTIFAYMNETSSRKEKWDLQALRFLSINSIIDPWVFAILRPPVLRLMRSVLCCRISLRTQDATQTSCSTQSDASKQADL
Assay: Affinity for Prostanoid EP2 receptor expressed in CHO cells
pIC50: −log10 of the molar value.
compounds and their reported pIC50
PROPERTY: pIC50

[[record]]
compound = "O=C(O)CCCCCC[C@@H]1[C@@H](CC[C@@H](O)CCc2ccccc2)[C@H](O)C[C@@H]1O"
target_system = "Prostaglandin E2 receptor EP2 subtype (Homo sapiens)"
recorded_value = 5.60

[[record]]
compound = "O=C(O)CCCCCC[C@@H]1[C@@H](CC[C@@H](O)COc2cccc(Cl)c2)[C@H](O)C[C@@H]1O"
target_system = "Prostaglandin E2 receptor EP2 subtype (Homo sapiens)"
recorded_value = 5.17

[[record]]
compound = "Cc1cccc(SCC(O)CC[C@@H]2[C@@H](CCCCCCC(=O)O)[C@@H](O)C[C@H]2O)c1 (stereo partly drawn)"
target_system = "Prostaglandin E2 receptor EP2 subtype (Homo sapiens)"
recorded_value = "< 5.00"

[[record]]
compound = "O=C(O)CCCCCC[C@@H]1[C@@H](CCC(O)CSc2cccc(F)c2)[C@H](O)C[C@@H]1O (stereo partly drawn)"
target_system = "Prostaglandin E2 receptor EP2 subtype (Homo sapiens)"
recorded_value = "< 5.00"

[[record]]
compound = "O=C(O)CCCCCC[C@@H]1[C@@H](CCC(O)CSc2ccccc2)[C@H](O)C[C@@H]1O (stereo partly drawn)"
target_system = "Prostaglandin E2 receptor EP2 subtype (Homo sapiens)"
recorded_value = "< 5.00"

[[record]]
compound = "O=C(O)CCCCCC[C@@H]1[C@@H](CC[C@@H](O)COc2ccccc2)[C@H](O)C[C@@H]1O"
target_system = "Prostaglandin E2 receptor EP2 subtype (Homo sapiens)"
recorded_value = "< 5.00"

[[record]]
compound = "CCCCC[C@H](O)/C=C/[C@@H]1[C@@H](C/C=C\\CCCC(=O)O)[C@@H](O)C[C@H]1O"
target_system = "Prostaglandin E2 receptor EP2 subtype (Homo sapiens)"
recorded_value = "< 5.00"

[[record]]
compound = "O=C(O)CCCCCC[C@@H]1[C@@H](CCC(O)CSc2cccc(C(F)(F)F)c2)[C@H](O)C[C@@H]1O (stereo partly drawn)"
target_system = "Prostaglandin E2 receptor EP2 subtype (Homo sapiens)"
recorded_value = "< 5.00"


* * *

Target: Prostaglandin E2 receptor EP1 subtype (Homo sapiens)
Sequence (P34995 whole entry): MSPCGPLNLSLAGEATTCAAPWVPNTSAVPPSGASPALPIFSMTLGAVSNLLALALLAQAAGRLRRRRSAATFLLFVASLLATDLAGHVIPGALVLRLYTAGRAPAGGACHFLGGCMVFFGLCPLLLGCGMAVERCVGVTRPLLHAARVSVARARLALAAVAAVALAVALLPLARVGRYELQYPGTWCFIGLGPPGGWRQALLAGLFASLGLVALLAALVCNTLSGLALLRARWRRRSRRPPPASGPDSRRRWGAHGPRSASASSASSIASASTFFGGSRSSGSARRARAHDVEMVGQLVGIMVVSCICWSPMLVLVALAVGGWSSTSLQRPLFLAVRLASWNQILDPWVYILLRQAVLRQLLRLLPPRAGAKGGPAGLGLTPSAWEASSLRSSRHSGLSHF
Assay: Affinity for Prostanoid EP1 receptor expressed in COS-7 cells.
pIC50: −log10 of the molar value.
PROPERTY: pIC50

[[record]]
molecule = "O=C(O)CCCCCC[C@@H]1[C@@H](CCC(O)CSc2cccc(Cl)c2)[C@H](O)C[C@@H]1O (stereo partly specified)"
modifier_sign = "<"
recorded_value = 5.00

[[record]]
molecule = "O=C(O)CCCCCC[C@@H]1[C@@H](CC[C@@H](O)CCc2ccccc2)[C@H](O)C[C@@H]1O"
modifier_sign = "="
recorded_value = 5.25

[[record]]
molecule = "O=C(O)CCC/C=C\\CC1C(O)CC(O)C1/C=C/C(O)COc1cccc(Cl)c1 (stereo unspecified) [CLOPROSTENOL]"
modifier_sign = "="
recorded_value = 6.30

[[record]]
molecule = "O=C(O)CCCCCC[C@@H]1[C@@H](CC[C@@H](O)COc2cccc(Cl)c2)[C@H](O)C[C@@H]1O"
modifier_sign = "="
recorded_value = 5.87

[[record]]
molecule = "O=C(O)CCCCCC[C@@H]1[C@@H](CCC(O)CSc2cccc(F)c2)[C@H](O)C[C@@H]1O (stereo partly specified)"
modifier_sign = "="
recorded_value = 6.44

[[record]]
molecule = "CCCCC[C@H](O)CC[C@@H]1[C@@H](CCCCCCC(=O)O)[C@@H](O)C[C@H]1O"
modifier_sign = "<"
recorded_value = 5.00


Where do these numbers come from? They come from ChEMBL document CHEMBL1132967.
